Assay comment: Probe fluorescence ratio response to linolenic acid relative to ADIFAB2
Format: binding
Condition info: response relative to ADIFAB2
# DR/DR LNA per entry
Number only, no unit.

Would you please look over these solved cases?
Requested field: DR/DR LNA. Item: 51P3, 72A (protein, listed as Rattus norvegicus, PEPTIDE (1)...(131) wild-type rat intestinal fatty acid binding protein) AFDGTWKVDRNENYEKFMEKMGINVVKRKLGAHDNLKLTITQEGNKFTVKPSSNFRNIDVVFELGVDFAYSAADGTELTGTWTMEGNKLVGKFKRVDNGKELIAVREISGNELIQTYTYEGVEAKRIFKKE
1.48

Now consider 55Y3, 72A (protein, listed as Rattus norvegicus, PEPTIDE (1)...(131) wild-type rat intestinal fatty acid binding protein) AFDGTWKVDRNENYEKFMEKMGINVVKRKLGAHDNLKLTITQEGNKFTVKESSNYRNIDVVFELGVDFAYSAADGTELTGTWTMEGNKLVGKFKRVDNGKELIAVREISGNELIQTYTYEGVEAKRIFKKE and answer again.
0.34

Now consider 82A, 72A (protein, listed as Rattus norvegicus, PEPTIDE (1)...(131) wild-type rat intestinal fatty acid binding protein) AFDGTWKVDRNENYEKFMEKMGINVVKRKLGAHDNLKLTITQEGNKFTVKESSNFRNIDVVFELGVDFAYSAADGTELTGTATMEGNKLVGKFKRVDNGKELIAVREISGNELIQTYTYEGVEAKRIFKKE and answer again.
1.56

// below: DR/DR LNA requested for another molecule
Requested field: DR/DR LNA. Item: 72A 73W 74A (protein, listed as Rattus norvegicus, PEPTIDE (1)...(131) wild-type rat intestinal fatty acid binding protein) AFDGTWKVDRNENYEKFMEKMGINVVKRKLGAHDNLKLTITQEGNKFTVKESSNFRNIDVVFELGVDFAYSAWAGTELTGTWTMEGNKLVGKFKRVDNGKELIAVREISGNELIQTYTYEGVEAKRIFKKE
2.093
